- System: HCV 1a-H77 subgenomic replicon
- test.name: microbe, parasite or virus in culture
- Assay type: cell-based, HCV genotype 1a
- assay.conditions: Hepatitis C virus, stable replicon, strain 1a H77, 5% FBS, no human plasma; read-out: 1a H77 5% FBS EC50
reported.property: pEC50
Conceptually, pEC50 converts a concentration in mol/L into minus its log10.

**Query** Could you share what pEC50 was measured for CS(=O)(=O)N(CC1CC1(F)F)c1cc2oc(-c3ccc(F)cc3)c(-c3ncc[nH]3)c2cc1C1CC1 (centres unmarked) [Example 55] , tested on HCV 1a-H77 subgenomic replicon?
**Result** 7.17

**Query** Same again, this time with [2H]C1([2H])NC(c2c(-c3ccc(F)cc3)oc3cc(N(CCCCS(C)(=O)=O)S(C)(=O)=O)c(C4CC4)cc23)=NO1 [Example 150]
**Result** 8.30

**Query** Same again, this time with CS(=O)(=O)N(CCCC(N)=O)c1cc2oc(-c3ccc(F)cc3)c(-c3ncc[nH]3)c2cc1C1CC1 [Example 108]
**Result** 7.82

**Query** Same again, this time with CC(C)N(c1cc2oc(-c3ccc(F)cc3)c(-c3ncc[nH]3)c2cc1C1CC1)S(C)(=O)=O [Example 52]
**Result** 6.89

**Query** Same again, this time with CS(=O)(=O)CCCN(c1cc2oc(-c3ccc(F)cc3)c(-c3ncc[nH]3)c2cc1C1CC1)S(C)(=O)=O [Example 101]
**Result** 8.39

**Query** Same again, this time with CS(=O)(=O)N(Cc1cnc(-c2ccc3nc[nH]c3c2)s1)c1ccc2c(-c3ncc[nH]3)c(-c3ccccc3)oc2c1 [Example 3]
**Result** 7.32

**Query** Same again, this time with Cc1c[nH]c(-c2c(-c3ccc(F)cc3)oc3cc(N(CCCCO)S(C)(=O)=O)c(C4CC4)cc23)n1 [Example 187]
**Result** 7.38

**Query** Same again, this time with CC(c1ccccc1)N(c1ccc2c(-c3ncc[nH]3)c(-c3ccccc3)oc2c1)S(C)(=O)=O (centres unmarked) [Example 20]
**Result** 6.00

**Query** Same again, this time with CS(=O)(=O)N(CCCS(N)(=O)=O)c1cc2oc(-c3ccc(F)cc3)c(C3=NOCN3)c2cc1C1CC1 [Example 15]
**Result** 8.19

**Query** Same again, this time with CS(=O)(=O)N(CCCC#N)c1cc2oc(-c3ccc(F)cc3)c(C3=NOCCN3)c2cc1C1CC1 [Example 133]
**Result** 8.20

**Query** Same again, this time with CS(=O)(=O)N(CCCC(=O)N1CCOCC1)c1cc2oc(-c3ccc(F)cc3)c(-c3ncc[nH]3)c2cc1C1CC1 [Example 103]
**Result** 7.35

**Query** Same again, this time with CCS(=O)(=O)CCN(c1cc2oc(-c3ccc(F)cc3)c(-c3ncc[nH]3)c2cc1C1CC1)S(C)(=O)=O [Example 96]
**Result** 8.21

**Query** Same again, this time with CS(=O)(=O)N(CC1CCOCC1)c1cc2oc(-c3ccc(F)cc3)c(-c3ncc[nH]3)c2cc1C1CC1 [Example 38]
**Result** 7.99

**Query** Same again, this time with CS(=O)(=O)N(CCCO)c1cc2oc(-c3ccc(F)cc3)c(C3=NOCCN3)c2cc1C1CC1 [Example 137]
**Result** 7.82

**Query** Same again, this time with CCS(=O)(=O)CCN(c1cc2oc(-c3ccc(F)cc3)c(C3=NOCCN3)c2cc1C1CC1)S(C)(=O)=O [Example 142]
**Result** 7.94

**Query** Same again, this time with CS(=O)(=O)N(CC1CCCCC1)c1cc2oc(-c3ccc(F)cc3)c(-c3ncc[nH]3)c2cc1C1CC1 [Example 45]
**Result** 7.06

**Query** Same again, this time with CS(=O)(=O)N(CCN)c1cc2oc(-c3ccc(F)cc3)c(-c3ncc[nH]3)c2cc1C1CC1 [Example 111]
**Result** 6.82

**Query** Same again, this time with CS(=O)(=O)N(CCC(F)(F)F)c1cc2oc(-c3ccc(F)cc3)c(C3=NOCCN3)c2cc1C1CC1 [Example 118]
**Result** 7.70

**Query** Same again, this time with CS(=O)(=O)N(CCOc1ccccc1)c1cc2oc(-c3ccc(F)cc3)c(-c3ncc[nH]3)c2cc1C1CC1 [Example 43]
**Result** 6.57

**Query** Same again, this time with CC(C)CCN(c1cc2oc(-c3ccc(F)cc3)c(C3=NOC(C)N3)c2cc1C1CC1)S(C)(=O)=O (centres unmarked) [Example 14]
**Result** 7.61

**Query** Same again, this time with CC(C)CCCN(c1cc2oc(-c3ccc(F)cc3)c(-c3ncc[nH]3)c2cc1C1CC1)S(C)(=O)=O [Example 40]
**Result** 7.64

**Query** Same again, this time with COc1ccc(CN(c2cc3oc(-c4ccc(F)cc4)c(C4=NOCN4)c3cc2C2CC2)S(C)(=O)=O)cc1 [Example 145]
**Result** 6.87

**Query** Same again, this time with CS(=O)(=O)Nc1cc2oc(-c3ccc(F)cc3)c(-c3ncc[nH]3)c2cc1C1CC1 [Example 1]
**Result** 6.68

**Query** Same again, this time with CS(=O)(=O)N(Cc1cnc(Br)s1)c1cc2oc(-c3ccc(F)cc3)c(-c3ncc[nH]3)c2cc1C1CC1 [Example 67]
**Result** 7.27

**Query** Same again, this time with CS(=O)(=O)CCCCN(c1cc2oc(-c3ccc(F)cc3)c(C3=NOCCN3)c2cc1C1CC1)S(C)(=O)=O [Example 122]
**Result** 8.08

**Query** Same again, this time with CCCCCCN(c1cc2oc(-c3ccc(F)cc3)c(-c3ncc[nH]3)c2cc1C1CC1)S(C)(=O)=O [Example 71]
**Result** 7.18

**Query** Same again, this time with COc1ccc(CN(c2cc3oc(-c4ccc(F)cc4)c(-c4ncc(C)[nH]4)c3cc2C2CC2)S(C)(=O)=O)cc1 [Example 188]
**Result** 6.40

**Query** Same again, this time with CS(=O)(=O)N(CCCN1CCS(=O)(=O)CC1)c1cc2oc(-c3ccc(F)cc3)c(C3=NOCCN3)c2cc1C1CC1 [Example 114]
**Result** 7.57

**Query** Same again, this time with CC(C)(O)C(O)CN(c1cc2oc(-c3ccc(F)cc3)c(-c3ncc[nH]3)c2cc1C1CC1)S(C)(=O)=O (centres unmarked) [Example 94]
**Result** 7.22
